- tested_system: Cannabinoid receptor 2 (Homo sapiens)
- protocol: Binding affinity against human CB2 receptor expressed in CHO cells by using WIN-55212-2 Mesylate [573H] as Radioactive tracer
- Assay type: cell-based
test_readout: Ki (nM)

* COc1cccc2c(C(=O)N[C@@H](Cc3ccccc3)c3ccon3)c(C)n(CCN3CCOCC3)c12 | 235
* CCc1c(C(=O)N[C@H]2C3(C)CCC(C3)C2(C)C)c2cccc(OC)c2n1CCN1CCOCC1 (stereo partly drawn) | 103
* COc1cccc2c(C(=O)NC3C(C)(C)[C@@H]4CC[C@@]3(C)C4)c(C)n(CCCN3CCOCC3)c12 (stereo partly drawn) | 25
* COC(=O)[C@H](Cc1ccccc1)NC(=O)c1c(C)n(CCN2CCOCC2)c2ccccc12 | 250
* COC(=O)[C@H](Cc1cccs1)NC(=O)c1c(C)n(CCN2CCOCC2)c2c(OC)cccc12 | 12
* CNC(=O)[C@H](Cc1ccccc1)NC(=O)c1c(C)n(CCN2CCOCC2)c2c(OC)cccc12 | 294
* CCCCCn1c(C)c(C(=O)NC2C(C)(C)[C@@H]3CC[C@@]2(C)C3)c2cccc(OC)c21 (stereo partly drawn) | 5
* COc1cccc2c(C(=O)N[C@@H](C)Cc3ccccc3)cn(CCN3CCOCC3)c12 | 71
* COc1cccc2c(C(=O)N[C@@H]3C4(C)CCC(C4)C3(C)C)cn(CCN3CCOCC3)c12 (stereo partly drawn) | 13
* COCCn1c(C)c(C(=O)NC2C(C)(C)[C@@H]3CC[C@@]2(C)C3)c2cccc(OC)c21 (stereo partly drawn) | 60
* COc1cccc2c(C(=O)NC3C(C)(C)[C@@H]4CC[C@@]3(C)C4)c(C)n(CCN(C)C)c12 (stereo partly drawn) | 505
* COc1cccc2c(C(=O)N[C@@H](Cc3ccccc3)C(C)=O)c(C)n(CCN3CCOCC3)c12 | 8
* COc1cccc2c(C(=O)NC3CC(C)(C)CCC3(C)C)cn(CCN3CCOCC3)c12 (stereo not drawn) | 22
* CCC(=O)[C@H](Cc1ccccc1)NC(=O)c1c(C)n(CCN2CCOCC2)c2c(OC)cccc12 | 24
* COc1cccc2c(C(=O)N[C@@H]3C4(C)CCC(C4)C3(C)C)c(C)n(CCN3CCOCC3)c12 (stereo partly drawn) | 41
* COc1cccc2c(C(=O)NC3C4(C)CCC(C4)C3(C)C)cn(CCN3CCOCC3)c12 (stereo not drawn) | 12
* COc1cccc2c(C(=O)N[C@@H](Cc3ccccc3)c3ccno3)c(C)n(CCN3CCOCC3)c12 | 169
* COc1cccc2c(C(=O)N[C@H]3C4(C)CCC(C4)C3(C)C)c(C)n(CCN3CCOCC3)c12 (stereo partly drawn) | 30

###

- tested_system: Cannabinoid receptor 2 (Homo sapiens)
- protocol: Binding affinity against human CB2 receptor expressed in CHO cells by using WIN-55212-2 Mesylate [573H] as Radioactive tracer
- Assay type: cell-based
test_readout: Ki (nM)

* COc1cc(F)cc2c(C(=O)N[C@H]3C4(C)CCC(C4)C3(C)C)c(C)n(CCN3CCOCC3)c12 (stereo not given in full) | 18
* COc1cccc2c(C(=O)N[C@H](C)Cc3ccccc3)c(C)n(CCN3CCOCC3)c12 | 263
* COC(=O)[C@H](Cc1cscn1)NC(=O)c1c(C)n(CCN2CCOCC2)c2c(OC)cccc12 | 20
* COc1cccc2c(C(=O)NC3CCCC3(C)C)c(C)n(CCN3CCOCC3)c12 (stereo not given) | 205
* COc1cccc2c(C(=O)N[C@@H]3C(C)(C)[C@@H]4CC[C@@]3(C)C4)c(C)n(CCN3CCCCC3)c12 | 89

###

- tested_system: Cannabinoid receptor 2 (Homo sapiens, UniProt P34972)
- Sequence (P34972 whole entry): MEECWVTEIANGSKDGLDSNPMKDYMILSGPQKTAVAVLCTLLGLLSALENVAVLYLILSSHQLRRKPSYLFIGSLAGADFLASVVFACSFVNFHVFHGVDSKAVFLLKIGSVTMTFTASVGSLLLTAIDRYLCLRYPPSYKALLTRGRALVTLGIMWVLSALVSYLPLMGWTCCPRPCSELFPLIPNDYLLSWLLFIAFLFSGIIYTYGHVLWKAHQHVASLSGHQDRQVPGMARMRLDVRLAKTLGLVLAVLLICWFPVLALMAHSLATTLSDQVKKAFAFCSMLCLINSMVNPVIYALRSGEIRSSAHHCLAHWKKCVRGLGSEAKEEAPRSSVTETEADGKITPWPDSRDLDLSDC
- protocol: Binding affinity against human Cannabinoid receptor 2 expressed in CHO cells by using WIN-55212-2 Mesylate [573H] as Radioactive tracer
- Assay type: cell-based
pKi: −log10 of the molar value.
test_readout: pKi

* CCCCCOc1cc(/C=C/C(=O)N[C@@H](Cc2ccc(O)cc2)C(=O)OC)ccc1OC | 6.92
* CCCCCOc1cc(/C=C/C(=O)N[C@@H](Cc2ccccc2)C(=O)OC)ccc1OC | 7.07
* COC(=O)[C@H](Cc1ccccc1)NC(=O)c1c(C)n(CCN2CCOCC2)c2c(OC)cccc12 | 8.10

###

- tested_system: Cannabinoid receptor 2 (Homo sapiens, UniProt P34972)
- protocol: Binding affinity against human CB2 receptor expressed in CHO cells by using WIN-55212-2 Mesylate [573H] as Radioactive tracer
- Assay type: cell-based
test_readout: Ki (nM)

- COC(=O)[C@H](Cc1cccc(Cl)c1)NC(=O)c1c(C)n(CCN2CCOCC2)c2c(OC)cccc12: 31
- COc1cccc2c(C(=O)NC3CC(C)(C)CCC3(C)C)c(C)n(CCN3CCOCC3)c12 (centres undefined): 38
- COc1cc(Cl)cc2c(C(=O)N[C@@H]3C4(C)CCC(C4)C3(C)C)c(C)n(CCN3CCOCC3)c12 (some centres undefined): 251
- CO/N=C(\C)[C@H](Cc1ccccc1)NC(=O)c1c(C)n(CCN2CCOCC2)c2c(OC)cccc12: 184

###

- tested_system: Cannabinoid receptor 1 (Homo sapiens)
- Sequence (P21554 whole entry): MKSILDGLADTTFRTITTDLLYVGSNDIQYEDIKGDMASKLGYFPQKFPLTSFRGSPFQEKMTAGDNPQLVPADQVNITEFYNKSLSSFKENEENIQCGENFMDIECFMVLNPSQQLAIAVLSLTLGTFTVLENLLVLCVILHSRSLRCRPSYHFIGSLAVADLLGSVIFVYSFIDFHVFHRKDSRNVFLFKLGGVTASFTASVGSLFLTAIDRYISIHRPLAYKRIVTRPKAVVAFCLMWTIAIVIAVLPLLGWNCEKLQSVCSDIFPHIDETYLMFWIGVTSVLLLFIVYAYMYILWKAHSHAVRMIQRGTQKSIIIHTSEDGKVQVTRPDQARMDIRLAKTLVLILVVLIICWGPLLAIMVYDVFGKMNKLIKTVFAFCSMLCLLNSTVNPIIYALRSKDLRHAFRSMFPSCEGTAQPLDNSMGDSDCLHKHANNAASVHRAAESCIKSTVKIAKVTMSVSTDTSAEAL
pKi: −log10 of the molar value.
test_readout: pKi

- COC(=O)[C@H](Cc1ccccc1)NC(=O)c1c(C)n(CCN2CCOCC2)c2c(OC)cccc12: 5.40
- CCCCCOc1cc(/C=C/C(=O)N[C@@H](Cc2ccc(O)cc2)C(=O)OC)ccc1OC: 5.24

###

# inhibition values compiled below
- tested_system: Cannabinoid receptor 2 (Homo sapiens, UniProt P34972)
- protocol: Displacement of WIN-55212-2-Mesylate [573H] from human CB2 receptor expressed in CHO cells at 100 nM
- Assay type: cell-based
test_readout: inhibition (%)

- COc1c(Cl)ccc2c(C(=O)N[C@@H]3C4(C)CCC(C4)C3(C)C)c(C)n(CCN3CCOCC3)c12 (stereo partly drawn): 15
- CC[C@H](Cc1ccccc1)NC(=O)c1c(C)n(CCN2CCOCC2)c2c(OC)cccc12: 18
- COc1cc(OC)c2c(c1)c(C(=O)N[C@@H]1C3(C)CCC(C3)C1(C)C)c(C)n2CCN1CCOCC1 (stereo partly drawn): 0
- CCCc1c(C(=O)N[C@@H]2C3(C)CCC(C3)C2(C)C)c2cccc(OC)c2n1CCN1CCOCC1 (stereo partly drawn): 6
- COc1ccc2c(C(=O)N[C@@H]3C4(C)CCC(C4)C3(C)C)c(C)n(CCN3CCOCC3)c2c1OC (stereo partly drawn): 0
- COc1cccc2c(C(=O)N[C@H](C#N)Cc3ccccc3)c(C)n(CCN3CCOCC3)c12: 18
- COc1cccc2c(C(=O)NC3C4(C)CCC(C4)C3(C)C)c(C)n(CCN3CCCC3)c12 (stereo not drawn): 25
- COc1ccc(Cl)c2c(C(=O)N[C@@H]3C4(C)CCC(C4)C3(C)C)c(C)n(CCN3CCOCC3)c12 (stereo partly drawn): 11
- COc1ccc(Br)c2c(C(=O)N[C@@H]3C4(C)CCC(C4)C3(C)C)c(C)n(CCN3CCOCC3)c12 (stereo partly drawn): 42
- COc1cccc2c(C(=O)N[C@@H](Cc3ccccc3)c3cc[nH]n3)c(C)n(CCN3CCOCC3)c12: 7
- COC[C@H](Cc1ccccc1)NC(=O)c1c(C)n(CCN2CCOCC2)c2c(OC)cccc12: 6
- COc1ccc(C#N)c2c(C(=O)N[C@@H]3C4(C)CCC(C4)C3(C)C)c(C)n(CCN3CCOCC3)c12 (stereo partly drawn): 33
- COc1cccc2c(C(=O)N[C@@H](Cc3ccccc3)C(=O)N(C)C)c(C)n(CCN3CCOCC3)c12: 29

FYI, the data here is from ChEMBL document CHEMBL1134897.
